Reported values of RLU for individual entries
- system.name: mouse Tas2r105 (Mus musculus, UniProt Q9JKT4)
- Construct: expressed in transfected cells; host or cells: HEK293T-Gα16gust44
- Sequence (Q9JKT4 whole entry): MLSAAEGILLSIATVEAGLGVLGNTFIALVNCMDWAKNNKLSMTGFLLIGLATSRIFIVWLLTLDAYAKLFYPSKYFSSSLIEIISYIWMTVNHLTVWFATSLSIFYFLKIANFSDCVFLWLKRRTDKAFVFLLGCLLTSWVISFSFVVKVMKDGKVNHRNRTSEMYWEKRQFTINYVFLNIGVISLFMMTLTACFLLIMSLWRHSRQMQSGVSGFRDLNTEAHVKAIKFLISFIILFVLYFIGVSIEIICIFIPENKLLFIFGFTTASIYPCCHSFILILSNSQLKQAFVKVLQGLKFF
- procedure.details: Calcium imaging assay (FLIPR), HEK293T-Gα16gust44 cells transfected with mouse Tas2r105
- Format: cell-based
- condition.summary: Time 116.781 s
Expressed in RLU, but write only the number.

Completed entries (count: 2):
compound	RLU [RLU]
C[C@H](CCC(=O)O)[C@H]1CC[C@H]2[C@@H]3CC[C@@H]4C[C@H](O)CC[C@]4(C)[C@H]3C[C@H](O)[C@]12C [Deoxycholic Acid, deoxycholic acid]	149.721
C[C@H](CCC(=O)O)[C@H]1CC[C@H]2[C@@H]3[C@H](O)C[C@@H]4C[C@H](O)CC[C@]4(C)[C@H]3C[C@H](O)[C@]12C [Cholic Acid, cholic acid]	550.607

# get_value(readout='RLU', item= C[C@H](CCC(=O)NCC(=O)O)[C@H]1CC[C@H]2[C@@H]3[C@H](O)C[C@@H]4C[C@H](O)CC[C@]4(C)[C@H]3C[C@H](O)[C@]12C [Glycocholic Acid, glycocholic acid] )
514.443

What value of RLU has been recorded for this entry: C[C@H](CCC(=O)O)[C@H]1CC[C@H]2[C@@H]3CC[C@@H]4C[C@H](O)CC[C@]4(C)[C@H]3CC[C@]12C [Lithocholic Acid, lithocholic acid]
246.887

###

- system.name: human TAS2R4 (Homo sapiens)
- Construct: expressed in transfected cells; host or cells: HEK293T-Gα16gust44
- Sequence (Q9NYW5 whole entry): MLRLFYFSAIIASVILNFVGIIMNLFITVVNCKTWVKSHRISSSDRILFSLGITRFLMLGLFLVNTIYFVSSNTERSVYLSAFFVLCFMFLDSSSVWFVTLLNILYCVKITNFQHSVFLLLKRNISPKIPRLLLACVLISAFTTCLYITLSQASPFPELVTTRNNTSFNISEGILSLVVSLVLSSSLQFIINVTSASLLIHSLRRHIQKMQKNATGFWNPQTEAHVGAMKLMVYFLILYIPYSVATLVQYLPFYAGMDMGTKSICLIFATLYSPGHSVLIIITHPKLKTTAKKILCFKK
- procedure.details: Calcium imaging assay (FLIPR), HEK293T-Gα16gust44 cells transfected with human TAS2R4; note: test concentration or dose not given here
- Format: cell-based
- condition.summary: Time (s) 132.781 (TCA, TLCA: 132.782)
# note: exactly 400 RLU is not below, so it is NOT MET; use MET for RLU, fluorescence trace strictly under it

API: query returns whether the molecule falls strictly under 400 RLU in RLU, fluorescence trace. Query: `C[C@H](CCC(=O)NCC(=O)O)[C@H]1CC[C@H]2[C@@H]3[C@H](O)C[C@@H]4C[C@H](O)CC[C@]4(C)[C@H]3C[C@H](O)[C@]12C`
NOT MET

###

- system.name: mouse Tas2r108 (Mus musculus, UniProt Q9JKT3)
- Construct: expressed in transfected cells; host or cells: HEK293T-Gα16gust44
- Sequence (Q9JKT3 whole entry): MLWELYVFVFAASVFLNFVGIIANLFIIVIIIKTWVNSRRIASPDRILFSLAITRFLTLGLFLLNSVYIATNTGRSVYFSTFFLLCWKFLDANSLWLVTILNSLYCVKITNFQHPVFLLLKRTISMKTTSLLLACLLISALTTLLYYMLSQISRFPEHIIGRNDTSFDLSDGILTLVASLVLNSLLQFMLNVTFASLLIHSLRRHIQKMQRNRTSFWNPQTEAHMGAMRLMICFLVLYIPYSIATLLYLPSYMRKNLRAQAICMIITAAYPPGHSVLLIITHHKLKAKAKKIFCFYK
- procedure.details: Calcium imaging assay (FLIPR), HEK293T-Gα16gust44 cells transfected with mouse Tas2r108
- Assay type: cell-based
- condition.summary: Time 161.562 s
Entries and their RLU values follow.
State the answer as a number, implicitly in RLU.

Solved cases below.
C[C@H](CCC(=O)O)[C@H]1CC[C@H]2[C@@H]3[C@H](O)C[C@@H]4C[C@H](O)CC[C@]4(C)[C@H]3C[C@H](O)[C@]12C 218.751
C[C@H](CCC(=O)O)[C@H]1CC[C@H]2[C@@H]3CC[C@@H]4C[C@H](O)CC[C@]4(C)[C@H]3C[C@H](O)[C@]12C 506.022
C[C@H](CCC(=O)NCCS(=O)(=O)O)[C@H]1CC[C@H]2[C@@H]3[C@H](O)C[C@@H]4C[C@H](O)CC[C@]4(C)[C@H]3C[C@H](O)[C@]12C 220.781

Which RLU is reported with mouse Tas2r108 (Mus musculus, UniProt Q9JKT3) for this entry: `C[C@H](CCC(=O)NCC(=O)O)[C@H]1CC[C@H]2[C@@H]3[C@H](O)C[C@@H]4C[C@H](O)CC[C@]4(C)[C@H]3C[C@H](O)[C@]12C` ?
173.161
